# Subject of test: SCRIB_2, Q14160
# Sequence (Q14160 857-960): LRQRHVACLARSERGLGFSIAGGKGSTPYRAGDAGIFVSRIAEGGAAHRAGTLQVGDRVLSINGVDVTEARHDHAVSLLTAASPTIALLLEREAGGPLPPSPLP
# Assay text: holdup assay
# Design: key: below the threshold = too weak to quantify, mostly under pKd 3.1 to 4
# Experimental conditions: plain residues with an end cap or a label only (N-terminal biotin on a linker: ado-ado)
Test readout: pKd

binder="CLREWCDAFL [BANF1, O75531]" test_readout=pKd val="below the threshold"
binder="TLPRKRMSSI [GPRC6A, Q5T6X5]" test_readout=pKd val="below the threshold"
binder="SSALYGESDL [ACTN2, P35609]" test_readout=pKd val=4.06
binder="YRLAQESGLV [ABCC6, O95255]" test_readout=pKd val="below the threshold"
